# target_entity: voltage-dependent T-type calcium channel subunit alpha-1G (Cav3.2) (Homo sapiens, UniProt O95180)
# Construct: expressed in transfected cells; host or cells: HEK293
# Sequence (O95180 whole entry): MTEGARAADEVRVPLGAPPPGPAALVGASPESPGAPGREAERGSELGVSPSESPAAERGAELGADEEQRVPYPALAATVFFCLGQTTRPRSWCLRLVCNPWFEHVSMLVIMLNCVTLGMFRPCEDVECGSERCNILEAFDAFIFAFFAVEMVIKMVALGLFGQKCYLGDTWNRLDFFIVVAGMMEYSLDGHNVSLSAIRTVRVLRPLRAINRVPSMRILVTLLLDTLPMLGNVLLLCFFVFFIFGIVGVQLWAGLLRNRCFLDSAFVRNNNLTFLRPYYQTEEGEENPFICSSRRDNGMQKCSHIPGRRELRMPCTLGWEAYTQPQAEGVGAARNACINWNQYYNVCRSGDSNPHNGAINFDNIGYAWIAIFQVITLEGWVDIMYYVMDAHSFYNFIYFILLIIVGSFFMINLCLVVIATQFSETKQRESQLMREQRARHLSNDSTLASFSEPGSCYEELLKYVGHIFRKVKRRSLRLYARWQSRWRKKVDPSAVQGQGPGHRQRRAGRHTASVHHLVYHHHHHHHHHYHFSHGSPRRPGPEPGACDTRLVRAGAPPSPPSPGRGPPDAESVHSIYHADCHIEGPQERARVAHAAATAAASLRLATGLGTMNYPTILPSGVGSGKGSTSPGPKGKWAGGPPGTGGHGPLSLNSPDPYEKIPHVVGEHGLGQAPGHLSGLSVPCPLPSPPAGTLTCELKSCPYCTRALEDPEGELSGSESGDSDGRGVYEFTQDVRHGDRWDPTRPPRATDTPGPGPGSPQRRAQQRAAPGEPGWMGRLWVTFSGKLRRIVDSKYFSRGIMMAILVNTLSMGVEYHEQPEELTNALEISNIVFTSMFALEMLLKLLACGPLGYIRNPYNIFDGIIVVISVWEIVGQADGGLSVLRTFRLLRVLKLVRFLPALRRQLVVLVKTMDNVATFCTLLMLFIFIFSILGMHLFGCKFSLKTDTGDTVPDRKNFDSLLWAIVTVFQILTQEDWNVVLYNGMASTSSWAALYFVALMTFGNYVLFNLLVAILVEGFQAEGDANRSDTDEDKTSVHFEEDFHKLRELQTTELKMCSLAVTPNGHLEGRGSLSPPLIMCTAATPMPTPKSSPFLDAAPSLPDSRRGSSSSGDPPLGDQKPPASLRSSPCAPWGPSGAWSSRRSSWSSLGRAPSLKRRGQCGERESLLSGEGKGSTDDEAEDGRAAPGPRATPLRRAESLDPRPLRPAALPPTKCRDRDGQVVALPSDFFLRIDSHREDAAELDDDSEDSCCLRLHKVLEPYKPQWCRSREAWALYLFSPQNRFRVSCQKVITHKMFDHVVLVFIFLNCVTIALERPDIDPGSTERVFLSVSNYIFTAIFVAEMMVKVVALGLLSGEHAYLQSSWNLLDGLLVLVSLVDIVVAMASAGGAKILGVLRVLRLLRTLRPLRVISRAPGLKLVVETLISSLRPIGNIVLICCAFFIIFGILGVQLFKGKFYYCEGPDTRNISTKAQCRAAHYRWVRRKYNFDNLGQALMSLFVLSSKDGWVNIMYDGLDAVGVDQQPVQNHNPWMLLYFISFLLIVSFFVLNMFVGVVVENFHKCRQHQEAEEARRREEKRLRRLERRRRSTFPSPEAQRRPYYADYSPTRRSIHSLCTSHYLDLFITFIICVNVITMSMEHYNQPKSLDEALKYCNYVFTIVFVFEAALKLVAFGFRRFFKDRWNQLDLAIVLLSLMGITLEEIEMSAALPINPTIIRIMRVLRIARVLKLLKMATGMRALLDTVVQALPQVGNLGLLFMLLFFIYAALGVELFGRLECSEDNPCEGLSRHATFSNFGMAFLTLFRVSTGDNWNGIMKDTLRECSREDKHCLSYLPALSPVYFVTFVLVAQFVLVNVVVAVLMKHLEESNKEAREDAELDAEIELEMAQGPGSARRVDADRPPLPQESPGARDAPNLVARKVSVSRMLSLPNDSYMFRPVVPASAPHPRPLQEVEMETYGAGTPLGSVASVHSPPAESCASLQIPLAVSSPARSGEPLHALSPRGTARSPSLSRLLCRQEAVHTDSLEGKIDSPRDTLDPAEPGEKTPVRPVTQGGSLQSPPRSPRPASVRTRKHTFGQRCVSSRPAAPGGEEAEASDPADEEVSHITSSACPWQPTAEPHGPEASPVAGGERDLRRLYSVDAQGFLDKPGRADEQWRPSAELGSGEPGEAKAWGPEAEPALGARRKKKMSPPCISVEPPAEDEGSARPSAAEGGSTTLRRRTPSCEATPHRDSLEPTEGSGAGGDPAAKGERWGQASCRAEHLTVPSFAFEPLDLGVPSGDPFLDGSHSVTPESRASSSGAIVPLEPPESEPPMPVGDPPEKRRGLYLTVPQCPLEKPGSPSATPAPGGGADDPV
# method: FLIPR calcium flux assay, HEK293 cells recombinantly expressing Cav3.2
# Type: cell-based
# settings: Cav3.2-channel, Fluo-4-AM, 3 min incubation, stimulation with 10 mM CaCl2
pIC50: −log10 of the molar value.
readout_label: pIC50

CC(C)c1ccc(CC(=O)Nc2ccn(Cc3ccc(OCC(F)(F)F)cn3)n2)cc1 ... 7.41
O=C(Cc1cnc(OCC(F)(F)F)c(F)c1)Nc1ccn(Cc2ccc(F)c(F)c2)n1 ... 7.00
CN(C)c1ccc(CC(=O)Nc2ccn(Cc3ccc(Cl)c(F)c3)n2)cn1 ... 7.72
O=C(Cc1ccc(C2CC2)nc1)Nc1ccn(Cc2ccc(F)c(Cl)c2)n1 ... 7.21
N#Cc1ccc(Cn2ccc(NC(=O)Cc3ccc(OCC4CC(F)(F)C4)cc3)n2)cc1 ... 7.43

a: O=C(Cc1ccc(OC2CCC2)cc1)Nc1ccn(Cc2ccc(F)cn2)n1
b: CN(C)c1ccc(CC(=O)Nc2ccn(Cc3ccc(F)c(Cl)c3)n2)cn1
input: Just tell me: smaller pIC50 value, a or b ? // caller expects the label of the chosen entry
output: a

A: CCc1nc(Cn2ccc(NC(=O)Cc3ccc(C(C)C)cc3)n2)ccc1C#N
B: COc1ccc(Cn2ccc(NC(=O)Cc3ccc(N4CCCC4)nc3)n2)cc1
input: Hi, I'm comparing A with B and wondering which one has the bigger number for pIC50. Any idea? // caller expects the label of the chosen entry
output: A

a: N#Cc1ccc(Cn2ccc(NC(=O)Cc3ccc(OCC4(F)COC4)cc3)n2)cc1F
b: CC(C)c1ccc(CC(=O)Nc2ccn(Cc3ccc(OC4CC4)cc3)n2)cc1
c: CN(c1ccc(CC(=O)Nc2ccn(Cc3ccc(F)cc3)n2)cn1)C1CC1
d: N#Cc1cc(Cn2ccc(NC(=O)Cc3ccc(C4CC(F)(F)C4)cc3)n2)ccc1F
e: Cc1cn(C)c2cc(CC(=O)Nc3ccn(Cc4ccc(F)c(F)c4)n3)ccc12
input: Ordering: ascending pIC50. // format: requested-order list of labels
output: a, b, c, d, e
(a: 7.12, b: 7.33, c: 7.68, d: 8.00, e: 8.39)

I: CN(c1ccc(CC(=O)Nc2ccn(Cc3ccc(C#N)cc3)n2)cn1)C1CC1
II: Cn1cc(C(F)(F)F)c2cc(CC(=O)Nc3ccn(Cc4ccc(C#N)cn4)n3)ccc21
input: Hi, I'm comparing I with II and wondering which one has the bigger number for pIC50. Any idea? // caller expects the label of the chosen entry
output: II

###

# target_entity: voltage-dependent T-type calcium channel subunit alpha-1G (Cav3.2) (Homo sapiens, UniProt O95180)
# method: FLIPR calcium flux assay, HEK293 cells recombinantly expressing Cav3.2
# settings: Cav3.2-channel, Fluo-4-AM, 3 min incubation, stimulation with 10 mM CaCl2
readout_label: IC50 (nM)

Solved entries (count: 5):
O=C(Cc1ccc(OCC2COC2)cc1)Nc1ccn(Cc2ccc(F)c(F)c2)n1 [Example 242] ... 39
CC(C)c1ccc(CC(=O)Nc2ccn(Cc3ccc(C4CC4)cc3)n2)cc1 [Example 192] ... 133
N#Cc1ccc(Cn2ccc(NC(=O)Cc3ccc(OC4CC(F)(F)C4)cc3)n2)cc1F [Example 261] ... 15
Cn1ccc2cc(CC(=O)Nc3ccn(Cc4ccc(C#N)cc4)n3)cnc21 [Example 214] ... 164
CN(C)c1ccc(CC(=O)Nc2ccn(Cc3ccc(F)c(C(F)(F)F)c3)n2)cc1 [Example 23] ... 6.4

a: CC(C)Cc1ccc(CC(=O)Nc2ccn(Cc3ccc(F)c(F)c3)n2)cc1C#N [Example 393]
b: Cn1ccc2ccc(CC(=O)Nc3ccn(Cc4ccc(F)c(F)c4)n3)cc21 [Example 221]
input: Hi, I'm comparing a with b and wondering which one has the bigger number for IC50. Any idea? // caller expects the label of the chosen entry
output: a
(a: 51 nM, b: 5 nM)

// provenance: patent US9932314B2
